- subjectOfTest: T1, dog serum albumin (dog, UniProt P49822 25-608)
- T1 construct: Bought protein, immobilized on a CM5 chip by amine coupling; also called Dog SA
- assayInfo: SPR (Biacore 8K), albumin immobilized on CM5 chip, 25 C, 1:1 kinetic fit
Kd reference
Numeric answer only, unit nM assumed.

// below: answered binders
Task item: Using the record for RLN Analog 8 (other, Single-chain fusion: VHH - (PGPQ)8 L1 - RLN2 B chain (desB1) - L2 - RLN2 A chain) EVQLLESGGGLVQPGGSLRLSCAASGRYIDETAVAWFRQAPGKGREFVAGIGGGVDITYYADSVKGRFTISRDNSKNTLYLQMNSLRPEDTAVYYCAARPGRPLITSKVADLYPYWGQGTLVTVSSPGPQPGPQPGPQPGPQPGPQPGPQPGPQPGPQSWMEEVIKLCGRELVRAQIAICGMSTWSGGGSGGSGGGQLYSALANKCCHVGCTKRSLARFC , report its Kd.
Reply: 0.66

Task item: Using the record for RLN Analog 14 (other, Single-chain fusion: VHH - (PGPQ)8 L1 - RLN2 A chain (desA1-4) - L2 - RLN2 B chain (desB1)) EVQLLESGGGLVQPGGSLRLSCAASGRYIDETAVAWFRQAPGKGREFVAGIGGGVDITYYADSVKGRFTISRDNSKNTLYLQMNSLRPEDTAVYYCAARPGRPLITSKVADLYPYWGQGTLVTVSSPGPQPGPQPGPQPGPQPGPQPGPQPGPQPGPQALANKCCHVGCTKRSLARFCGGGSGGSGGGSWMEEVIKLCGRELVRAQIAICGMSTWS , report its Kd.
Reply: 1.1

Kindly review the next binder as well.
Task item: Using the record for RLN Analog 9 (other, Single-chain fusion: RLN2 B chain (desB1) - L2 - RLN2 A chain - (G4Q)5 L1 - VHH (C-terminal)) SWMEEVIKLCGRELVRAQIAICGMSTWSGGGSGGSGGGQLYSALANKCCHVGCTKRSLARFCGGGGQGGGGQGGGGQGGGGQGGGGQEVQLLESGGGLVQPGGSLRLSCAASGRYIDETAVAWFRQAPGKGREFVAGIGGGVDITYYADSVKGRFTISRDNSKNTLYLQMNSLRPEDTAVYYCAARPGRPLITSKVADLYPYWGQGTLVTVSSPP , report its Kd.
Reply: 3.8
